Test: AUC(0 to infinity) in male Sprague-Dawley rat at 10 mg/kg, sc measured upto 24 hrs by LC-MS/MS analysis
Format: ADME, organism-based
Conditions: in vivo
measurement name: AUC(0-inf) (µg·h/mL)

CN(C(=O)[C@H](Cc1cc(F)cc(F)c1)NC(=O)Cc1c[nH]c2ccc(O)cc12)c1ccc2scnc2c1 : 0.0336

* * *

Experiment: AUC(0 to t) in male Sprague-Dawley rat at 10 mg/kg, sc measured upto 24 hrs by LC-MS/MS analysis
Type: ADME, organism-based
Conditions: in vivo
measurement name: AUC(0-t) at 24 h (ng·h/mL)

CN(C(=O)[C@H](Cc1cc(F)cc(F)c1)NC(=O)Cc1c[nH]c2ccc(O)cc12)c1ccc2scnc2c1 : 23.3

Source of measurements: ChEMBL document CHEMBL6083251
